Test system: Fer (mouse)
Experiment: phosphorylation enrichment, bacterial display (enrichment ratio); higher = better substrate or ligand; peptides without Tyr show the background;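 further: 11-residue human phosphosite peptides and single-mutation variants displayed on the E. coli surface, counted by deep sequencing, each peptide's frequency after selection divided by its frequency in the unselected input library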;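 further: frequency after pTyr selection over input frequency; kinase dosed for 20-30% of maximal phosphorylation in three min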
ASSAY_ENDPOINT: phosphorylation enrichment

Some solved entries appear below for comparison.
MONOMER_SEQUENCE: APTSGYREFVH [IL4R_Y575_Q576R]
ASSAY_TARGET: Fer (mouse)
phosphorylation enrichment: 0.485
--
MONOMER_SEQUENCE: AEQEEYSAMRD [NRAS_Y64_G60E]
ASSAY_TARGET: Fer (mouse)
phosphorylation enrichment: 0.469
--
MONOMER_SEQUENCE: EEGEEYGGGGG [TUBA1A_Y451]
ASSAY_TARGET: Fer (mouse)
phosphorylation enrichment: 0.552
--
MONOMER_SEQUENCE: FGSVDCWEKFF [EEF1AKNMT_Y16_Y16C]
ASSAY_TARGET: Fer (mouse)
phosphorylation enrichment: 0.462
--
MONOMER_SEQUENCE: ASYGPNTRVQS [FOXL2_Y258_Y258N]
ASSAY_TARGET: Fer (mouse)
phosphorylation enrichment: 0.448
--
MONOMER_SEQUENCE: PEVSGYCHCAD [TG_Y234]
ASSAY_TARGET: Fer (mouse)
phosphorylation enrichment: 1.14
--
MONOMER_SEQUENCE: DFSLKYPTDIP [APC_Y1183_A1184P_YF]
ASSAY_TARGET: Fer (mouse)
phosphorylation enrichment: 0.616
--
MONOMER_SEQUENCE: RESYKYFPSSL [CXXC1_Y218]
ASSAY_TARGET: Fer (mouse)
phosphorylation enrichment: 0.82

GET /values?item= MSRDVYSTDFF [NTRK2_Y702_YF] &system= Fer (mouse) returns phosphorylation enrichment: 0.486

Log: Fer (mouse), sequence RLNCIYYKDQT [RS1_Y165_W163C] , phosphorylation enrichment = 0.497

Entry TWEKPYECVQC [ZNF24_Y335_G331W] : phosphorylation enrichment on Fer (mouse) = 4.82

Measured on Fer (mouse), HSPLRYTSILT [OR51B6_Y130_R125H] has a documented phosphorylation enrichment of 0.892

Value sought: phosphorylation enrichment, system Fer (mouse), item CTTIHYNFMGN [TP53_Y234_C238G_YF] . Result: 0.472

The reported phosphorylation enrichment value, Fer (mouse), for KPRKLYTIKKP [BRD2_Y715_P714L] reads 0.413

----------
Biological target: FGFR3 (UniProt P22607)
Sequence (P22607 whole entry, looked up): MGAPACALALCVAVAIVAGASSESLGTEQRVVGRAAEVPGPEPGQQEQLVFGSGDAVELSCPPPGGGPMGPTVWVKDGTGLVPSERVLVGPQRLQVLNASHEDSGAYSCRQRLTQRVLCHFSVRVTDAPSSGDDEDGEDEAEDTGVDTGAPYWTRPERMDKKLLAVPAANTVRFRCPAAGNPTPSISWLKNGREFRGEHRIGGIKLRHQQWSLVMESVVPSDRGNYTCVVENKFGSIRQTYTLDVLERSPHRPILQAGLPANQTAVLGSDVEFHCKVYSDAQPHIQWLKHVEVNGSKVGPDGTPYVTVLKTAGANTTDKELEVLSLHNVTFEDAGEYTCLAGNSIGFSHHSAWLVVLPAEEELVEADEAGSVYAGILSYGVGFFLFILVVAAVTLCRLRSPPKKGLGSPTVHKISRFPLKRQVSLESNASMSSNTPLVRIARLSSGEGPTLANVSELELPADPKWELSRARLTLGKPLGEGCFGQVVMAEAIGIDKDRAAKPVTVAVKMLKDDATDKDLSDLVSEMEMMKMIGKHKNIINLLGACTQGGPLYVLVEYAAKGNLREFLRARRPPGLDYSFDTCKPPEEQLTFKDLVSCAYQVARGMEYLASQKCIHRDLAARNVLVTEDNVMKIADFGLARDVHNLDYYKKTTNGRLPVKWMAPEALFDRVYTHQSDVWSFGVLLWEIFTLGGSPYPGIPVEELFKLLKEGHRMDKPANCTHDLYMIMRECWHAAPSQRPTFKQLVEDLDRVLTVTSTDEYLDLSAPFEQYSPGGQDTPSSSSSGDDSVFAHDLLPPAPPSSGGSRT
Assay: phosphorylation enrichment, bacterial display (enrichment ratio); higher = better substrate or ligand; peptides without Tyr show the background
ASSAY_ENDPOINT: phosphorylation enrichment
Give the figure by itself; no unit, no explanation.

The examples below pair each entry with its known result.
MONOMER_SEQUENCE: ASYGPNTRVQS [FOXL2_Y258_Y258N]
REPORTED: 0.407
//
MONOMER_SEQUENCE: EYQKKYSDADI [CKAP5_Y1860_K1857Q]
REPORTED: 0.589
//
MONOMER_SEQUENCE: RPYSPYIIRGM [LRP5_Y1531_R1529S]
REPORTED: 0.509
//
MONOMER_SEQUENCE: PTKNDYWAMLA [WWOX_Y287]
REPORTED: 4.3
//
MONOMER_SEQUENCE: LRRREYQRQDY [PRKRIP1_Y90]
REPORTED: 0.683
//
MONOMER_SEQUENCE: SYPHEYGSQEG [RBM10_Y48_R46H]
REPORTED: 0.559

Short answer for INMKKYCKKDY [NTN1_Y490] : phosphorylation enrichment was 0.592

phosphorylation enrichment for KASIMYPSSNC [CXCL11_Y52_N55S] is 0.467

Form field phosphorylation enrichment, entry LGSNTYPFLLT [SAG_Y120] : 1.4

# phosphorylation enrichment (sequence: GFILMYDITNK [RAB3C_Y110_E115K] ) is 1.17
